Test system: wild mustard (Brassica kaber), also known as Sinapis arvensis (SINAR)
method.description: post-emergent herbicidal test, wild mustard
Format: in vivo
test.context: Brassica, post-emergence, post-emergent, 1.0 kg/ha (*), 17-21 days after application; read-out: SINAR percent control
Decide by pest or weed control at 1000 g/ha: equal to or exceeding 80% means condition met, less means condition not met.

Given the entry CC1CCCN(CC(P(=O)(O)O)P(=O)(O)O)C1 (stereo not shown) , answer whether its pest or weed control at 1000 g/ha meets or surpasses 80%.
condition not met

Check the entry O=P(O)(O)C(CN1C=NCCC1)P(=O)(O)O : does pest or weed control at 1000 g/ha equal or exceed 80%?
condition met

Could you verify whether the entry Cc1cnn(CC(P(=O)(O)O)P(=O)(O)O)c1 shows pest or weed control at 1000 g/ha of no less than 80%?
condition not met

Tell me whether pest or weed control at 1000 g/ha is at least 80% here: CCCN(CCC)CC(P(=O)(O)O)P(=O)(O)O
condition met

Item CCCN(CC)CC(P(=O)(O)O)P(=O)(O)O with pest or weed control at 1000 g/ha of 80% or above?
condition met

I'd appreciate it if you could say whether O=P(O)(O)C(CNCC(F)(F)F)P(=O)(O)O has pest or weed control at 1000 g/ha at least equal to 80%.
condition not met

Does the compound C=CCN(C)CC(P(=O)(O)O)P(=O)(O)O have recorded pest or weed control at 1000 g/ha that is 80% or more?
condition met

Quick check, pest or weed control at 1000 g/ha >= 80%? O=P(O)(O)C(CNCCc1ccccc1)P(=O)(O)O
condition not met

Decide: is the reported value of pest or weed control at 1000 g/ha for O=P(O)(O)C(CNC1Cc2ccccc2C1)P(=O)(O)O equal to or greater than 80%?
condition not met

Check this compound for pest or weed control at 1000 g/ha at or above 80%: CCCCNCC(P(=O)(O)O)P(=O)(O)O
condition met

---

Test system: farnesyl pyrophosphate synthase in daffodil chromoplasts
method.description: inhibition of farnesyl pyrophosphate synthase in daffodil chromoplasts (14C-isopentenyl pyrophosphate incorporation)
Type: biochemical, Narcissus pseudonarcissus
test.context: Table II; unit inferred, IC50 values in nM; read-out: IC50
Procedure: The IC50 value may be determined as follows. […] The butanol soluble radioactivity is then measured in a scintillation counter. In addition, the problem of variable quenching differences among different experiments can be essentially eliminated by determining the incorporation of radioactivity relative to controls. […] For each concentration of inhibitor examined the % residual activity is determined from the formula [formula] […]
Please respond with reported IC50 for every item in the list.
# number only, unit nM dropped from output

Which value of IC50 has been reported for O=P(O)(O)C(CN1CCCCC1)P(=O)(O)O [Compound 1] in the records?
32

I would be grateful if you could share the reported IC50 for C=CCNCC(P(=O)(O)O)P(=O)(O)O [Compound 18] .
26

Entry under review: CCCN(CCC)CC(P(=O)(O)O)P(=O)(O)O [Compound 19] . Reported IC50?
32

Reported IC50, molecule CC1(C)CCCN(CC(P(=O)(O)O)P(=O)(O)O)C1 [Compound 47] : ____
2280

Entry CC1CCCCN1CC(P(=O)(O)O)P(=O)(O)O (centres unmarked) [Compound 10] has what IC50?
83

# get_value(readout='IC50', item= O=P(O)(O)C(O)(C1CCCN1)P(=O)(O)O (centres unmarked) [Compound 2] )
933

Looking for the measured IC50 of O=P(O)(O)C(CNC1CCc2ccccc21)P(=O)(O)O (centres unmarked) [Compound 49] , can you help?
1730

Give the measured IC50 of CNCC(P(=O)(O)O)P(=O)(O)O [Compound 25] .
1680

# query: IC50 of entry CCCN(CC)CC(P(=O)(O)O)P(=O)(O)O [Compound 38]
124

Dear colleague, I am looking for the recorded IC50 of the following molecule: CCC1CCCCN1CC(P(=O)(O)O)P(=O)(O)O (centres unmarked) [Compound 53]
112

Endpoint output: IC50 of CCCN(CCC(C)C)CC(P(=O)(O)O)P(=O)(O)O [Compound 61] . Value?
1000
